- TESTED TARGET: MAO-B (Homo sapiens, UniProt P27338)
- Construct: purchased Sigma Aldrich
- Sequence (P27338 1-520): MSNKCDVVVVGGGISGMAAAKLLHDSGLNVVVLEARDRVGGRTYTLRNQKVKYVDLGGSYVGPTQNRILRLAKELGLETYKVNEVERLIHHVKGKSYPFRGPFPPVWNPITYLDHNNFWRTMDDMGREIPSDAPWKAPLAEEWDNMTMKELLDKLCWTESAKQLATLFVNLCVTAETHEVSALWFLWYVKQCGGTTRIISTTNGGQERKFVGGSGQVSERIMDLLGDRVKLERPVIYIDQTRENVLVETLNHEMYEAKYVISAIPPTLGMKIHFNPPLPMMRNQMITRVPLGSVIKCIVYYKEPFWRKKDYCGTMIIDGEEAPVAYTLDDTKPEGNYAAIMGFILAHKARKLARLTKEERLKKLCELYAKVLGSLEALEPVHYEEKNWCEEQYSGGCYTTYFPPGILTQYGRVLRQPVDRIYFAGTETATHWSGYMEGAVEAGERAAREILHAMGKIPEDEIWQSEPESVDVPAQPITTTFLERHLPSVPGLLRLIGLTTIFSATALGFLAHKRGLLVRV
- ASSAY TEXT: MAO-B enzyme inhibition assay (benzylamine substrate)
- Format: biochemical
- ASSAY CONDITIONS: MAO-B selectivity over MAO-A, based on IC50 values
Entry flag: Condition met if SI (MAO) reaches 10; Condition not met if it does not.

Please review the entries below; each comes with its answer.
{"columns": ["SMILES CODE", "TESTED TARGET", "ANSWER LABEL"],
 "data": [
  ["COc1cc(/C=C/C(=O)c2ccc(N3CCN(C)CC3)cc2)ccc1F", "MAO-B (Homo sapiens, UniProt P27338)", "Condition not met"],
  ["CN1CCN(c2ccc(C(=O)/C=C/c3cc(F)cc(C(F)(F)F)c3)cc2)CC1", "MAO-B (Homo sapiens, UniProt P27338)", "Condition met"],
  ["CN1CCN(c2ccc(C(=O)/C=C/c3ccc(OC(F)F)cc3)cc2)CC1", "MAO-B (Homo sapiens, UniProt P27338)", "Condition not met"],
  ["COc1ccc(/C=C/C(=O)c2ccc(N3CCN(C)CC3)cc2)c(C(F)(F)F)c1", "MAO-B (Homo sapiens, UniProt P27338)", "Condition not met"],
  ["CN1CCN(c2ccc(C(=O)/C=C/c3ccc(C#N)cc3)cc2)CC1", "MAO-B (Homo sapiens, UniProt P27338)", "Condition met"],
  ["CN1CCN(c2ccc(C(=O)/C=C/c3ccc(N(C)C)cc3)cc2)CC1", "MAO-B (Homo sapiens, UniProt P27338)", "Condition met"],
  ["CN1CCN(c2ccc(C(=O)/C=C/c3ccc(F)cc3)cc2)CC1", "MAO-B (Homo sapiens, UniProt P27338)", "Condition met"],
  ["CC(C)c1ccc(/C=C/C(=O)c2ccc(N3CCN(C)CC3)cc2)cc1", "MAO-B (Homo sapiens, UniProt P27338)", "Condition not met"]
]}

Req: Assess whether reported SI (MAO) for CN1CCN(c2ccc(C(=O)/C=C/c3ccc(C(F)(F)F)cc3)cc2)CC1 sits at 10 or higher.
Resp: Condition met

Req: Proceed to CN1CCN(c2ccc(C(=O)/C=C/c3ccc(F)cc3F)cc2)CC1
Resp: Condition not met

Req: Proceed to CN1CCN(c2ccc(C(=O)/C=C/c3cccc(C(F)(F)F)c3)cc2)CC1
Resp: Condition met
